- System: Human adenovirus 5
- assay.overview: Antiviral activity against Human adenovirus 5 Adenoid 75 infected in A549 cells assessed as reduction in virus titer preincubated for 24 hrs followed by viral infection and measured after 72 hrs by microscopic analysis
- Type: functional, organism-based
Active and inactive are the calls of the source. The rule behind the calls is not given here.
endpoint.label: Activity

INSERT INTO assay_data (mol, result) VALUES
  ('C=C(C)[C@@H]1CC[C@]2(COC(=O)CCCC(=O)N3CCSCC3)CC[C@]3(C)[C@H](CC[C@@H]4[C@@]5(C)CC[C@H](O)C(C)(C)[C@@H]5CC[C@]43C)[C@@H]12', 'inactive'),
  ('C#CC1(NC(=O)/C(C)=C/C(=O)OC[C@]23CC[C@@H](C(=C)C)[C@@H]2[C@H]2CC[C@@H]4[C@@]5(C)CC[C@H](O)C(C)(C)[C@@H]5CC[C@@]4(C)[C@]2(C)CC3)CCCCC1', 'inactive'),
  ('C#CC1(NC(=O)c2ccccc2C(=O)OC[C@]23CC[C@@H](C(=C)C)[C@@H]2[C@H]2CC[C@@H]4[C@@]5(C)CC[C@H](O)C(C)(C)[C@@H]5CC[C@@]4(C)[C@]2(C)CC3)CCCCC1', 'inactive');

###

- System: MDCK
- assay.overview: Cytotoxicity against MDCK cells assessed as reduction in cell viability incubated for 72 hrs by MTT assay
- Format: cell-based, Canis lupus familiaris
- measurement.conditions: dog, mdck, 72 h
Listed next: entries and their corresponding CC20.
endpoint.label: CC20 (µM)

INSERT INTO results (molecule, unit_abbrev, numeric_value) VALUES
  ('C=C(C)[C@@H]1CC[C@]2(COC(=O)CCCC(=O)N3CCCCC3)CC[C@]3(C)[C@H](CC[C@@H]4[C@@]5(C)CC[C@H](O)C(C)(C)[C@@H]5CC[C@]43C)[C@@H]12', 'µM', 4.25),
  ('C=C(C)[C@@H]1CC[C@]2(COC(=O)c3ccccc3C(=O)N3CCCCC3)CC[C@]3(C)[C@H](CC[C@H]4C3(C)CC[C@H]3C(C)(C)[C@@H](O)CC[C@@]34C)[C@@H]12 (single isomer, unassigned)', 'µM', 32.72),
  ('C=C(C)[C@@H]1CC[C@]2(COC(=O)/C=C(\C)C(=O)N3CCOCC3)CC[C@]3(C)[C@H](CC[C@@H]4[C@@]5(C)CC[C@H](O)C(C)(C)[C@@H]5CC[C@]43C)[C@@H]12', 'µM', 37.82),
  ('C=C(C)[C@@H]1CC[C@]2(COC(=O)CCC(=O)N3CCCCC3)CC[C@]3(C)[C@H](CC[C@@H]4[C@@]5(C)CCC(O)C(C)(C)[C@@H]5CC[C@]43C)[C@@H]12 (single isomer, unassigned)', 'µM', 17.46),
  ('C#CC1(NC(=O)c2ccccc2C(=O)OC[C@]23CC[C@@H](C(=C)C)[C@@H]2[C@H]2CC[C@@H]4[C@@]5(C)CC[C@H](O)C(C)(C)[C@@H]5CC[C@@]4(C)[C@]2(C)CC3)CCCCC1', 'µM', 1.57),
  ('C=C(C)[C@@H]1CC[C@]2(COC(=O)CCCCCCCCCC(=O)N3CCCCC3)CC[C@]3(C)[C@H](CC[C@@H]4[C@@]5(C)CC[C@H](O)C(C)(C)[C@@H]5CC[C@]43C)[C@@H]12', 'µM', 127.84),
  ('C=C(C)[C@@H]1CC[C@]2(COC(=O)c3ccccc3C(=O)O)CC[C@]3(C)[C@H](CC[C@@H]4[C@@]5(C)CC[C@H](O)C(C)(C)[C@@H]5CC[C@]43C)[C@@H]12', 'µM', 42.3),
  ('C=C(C)[C@@H]1CC[C@]2(COC(=O)CCC(=O)N3CCSCC3)CC[C@]3(C)[C@H](CC[C@@H]4[C@@]5(C)CC[C@H](O)C(C)(C)[C@@H]5CC[C@]43C)[C@@H]12', 'µM', 124.84),
  ('C=C(C)[C@@H]1CC[C@]2(COC(=O)c3cccc(C(=O)O)c3)CC[C@]3(C)[C@H](CC[C@@H]4[C@@]5(C)CC[C@H](O)C(C)(C)[C@@H]5CC[C@]43C)[C@@H]12', 'µM', 42.3),
  ('C=C(C)[C@@H]1CC[C@]2(COC(=O)/C=C/C(=O)O)CC[C@]3(C)[C@H](CC[C@@H]4[C@@]5(C)CC[C@H](O)C(C)(C)[C@@H]5CC[C@]43C)[C@@H]12', 'µM', 5.73);
